system: A498 renal; assay: NCI-60 one-dose screen, 48 h (100 = growth as untreated, 0 = no growth, -100 = all killed); conditions: 10 µM unless noted
This is part of a sample that, as a whole, favours compounds with a hit. Of some 83,000 tested, about 20% had one in any assay. Activity calls are given as the source filed them. The calls were made as follows: active = growth percent below 10; inactive = the rest.
I'd be grateful if you could share measured growth for these entries.

| compound | measure-name | value-reported |
| --- | --- | --- |
| COc1c(O)cc2c(c1CC=C(C)C)OC(=O)c1c(cc(O)c(CC=C(C)C)c1O)O2 | growth | 116% (inactive) |
| O=C1C=CC(=O)N1c1ccccc1N1C(=O)C=CC1=O | growth | 101% (inactive) |
| O=C(CNC(=O)c1cccc2ccccc12)Nc1ccccc1Oc1ccc(O)cc1 | growth | 17.6% [5 µM] (inactive) |
| C(=C1c2ccccc2-c2ccccc21)c1ccccn1 | growth | 97.8% (inactive) |
| Cc1ccc(C2=NNC(c3sc(Cl)nc3Cl)C2)cc1 (stereo not drawn) | growth | 97.2% (inactive) |
| O=C1C(=O)c2c(nc3ccc(Cl)cn23)-c2ccccc21 | growth | -100% (active) |
| COc1cnc2c(c1)C(=O)c1c-2n(CCCN2CCNCC2)c(=O)c2cc(F)ccc12 | growth | -25.7% (active) |
| CN(C)c1ccc(-n2nc3ccccc3n2)cc1 | growth | 96.4% (inactive) |

Consider the following items and state reported growth for each.
1. Cc1ccc2nc(SCC(=O)Nc3ccc(-c4nc5ccccc5s4)c(Cl)c3)[nH]c2c1
2. COc1cc2c(cc1OC)C(=O)/C(=C/c1cccc(OCC(=O)c3ccccc3)c1)C2
3. O=C(COc1ccc(/C=C2\Oc3ccc4ccccc4c3C2=O)cc1)c1ccc(Cl)cc1
4. CCCCCc1c(C)[nH]c(/C=C2\N=C(c3ccc[nH]3)C=C2Oc2ccc(Cl)cc2)c1C
5. COC(=O)C1(NC(=O)CNC(=O)OCc2ccccc2)CCCC1
6. Cc1ccc(S(=O)(=O)N2CCN(C(=O)CSc3nc4ccc(C)cc4[nH]3)CC2)cc1
7. Nc1nc2c(nnn2Cc2ccc(Cl)c(Cl)c2)c(=O)[nH]1
8. OC(c1ccccc1)C(NCc1ccccc1)c1ccccc1 (stereo not drawn)

A)
["105% (inactive)", "103% (inactive)", "155% (inactive)", "-49% [100 µM] (active)", "96.9% (inactive)", "99.7% (inactive)", "85.5% (inactive)", "87.7% (inactive)"]

Please supply growth for each of the following items, keeping them in order.
1. CN1CCN(CCCCCN=c2cc3c(=O)n(CCCCCN4CCN(C)CC4)c(=O)c4c(NCCCCCN5CCN(C)CC5)cc5c(O)n(CCCCCN6CCN(C)CC6)c(=O)c2c5c4-3)CC1
2. CCCCCCCCCCOC(C)=O
3. Nc1ccccc1-c1ccn[nH]1

A)
1: 95.6% (inactive); 2: 108% (inactive); 3: 103% (inactive)

Respectfully, I request growth for each entry included below.
1. Cc1[nH]ccc2cc3nc4ccccc4c3cc12
2. CN(C)CCCNc1nn2c(=O)c3ccccc3nc2c2ccccc12
3. Cc1cc(-c2ccccc2)cc(C)n1
4. O=C1Nc2ccc(C(=O)O)c(O)c2C1=O

A)
["4.99% (active)", "92% (inactive)", "116% (inactive)", "102% (inactive)"]
